Values compiled from ChEMBL document CHEMBL3875216.

Tested on: Escherichia coli
Assay: Inhibition of LuxR-dependent quorum sensing activity in Escherichia coli MT102 harboring pJBA132 assessed as inhibition of OHHL-induced GFP expression at 2 mM measured after 24 hrs by fluorescence assay relative to control
measuredParameter: inhibition (%)
Answer with a number only, understood to be in %.

Exercise: Hello, I am looking for reported inhibition with Escherichia coli for CC(=O)OC[C@H]1O[C@@H](OC(C)=O)[C@H](NC(=O)Cc2ccc(C(F)(F)F)cc2)[C@@H](OC(C)=O)[C@@H]1OC(C)=O . Could you help?
Key: 61.7

Exercise: Now try CCCCCC(=O)N[C@@H]1[C@@H](O)[C@H](O)[C@@H](CO)O[C@H]1O .
Key: 42.7

Exercise: Likewise for O=C(CCCc1ccccc1)N[C@@H]1[C@@H](O)[C@H](O)[C@@H](CO)O[C@H]1O ?
Key: 85

Exercise: Please do the same for CCCC(=O)N[C@H]1[C@H](OC(C)=O)O[C@H](COC(C)=O)[C@@H](OC(C)=O)[C@@H]1OC(C)=O as well.
Key: 23.4
